# tested target: cdc2/cyclinB (Homo sapiens, UniProt P06493)
# Sequence (P06493 whole entry): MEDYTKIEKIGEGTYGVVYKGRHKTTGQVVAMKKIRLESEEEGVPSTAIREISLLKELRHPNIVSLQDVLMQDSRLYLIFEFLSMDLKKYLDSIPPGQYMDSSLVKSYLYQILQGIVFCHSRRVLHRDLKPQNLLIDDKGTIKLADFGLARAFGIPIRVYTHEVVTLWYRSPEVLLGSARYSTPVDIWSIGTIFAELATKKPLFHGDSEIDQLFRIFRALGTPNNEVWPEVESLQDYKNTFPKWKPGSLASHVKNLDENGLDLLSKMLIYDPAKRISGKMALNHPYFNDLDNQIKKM
# Sequence (P14635 whole entry, further chain): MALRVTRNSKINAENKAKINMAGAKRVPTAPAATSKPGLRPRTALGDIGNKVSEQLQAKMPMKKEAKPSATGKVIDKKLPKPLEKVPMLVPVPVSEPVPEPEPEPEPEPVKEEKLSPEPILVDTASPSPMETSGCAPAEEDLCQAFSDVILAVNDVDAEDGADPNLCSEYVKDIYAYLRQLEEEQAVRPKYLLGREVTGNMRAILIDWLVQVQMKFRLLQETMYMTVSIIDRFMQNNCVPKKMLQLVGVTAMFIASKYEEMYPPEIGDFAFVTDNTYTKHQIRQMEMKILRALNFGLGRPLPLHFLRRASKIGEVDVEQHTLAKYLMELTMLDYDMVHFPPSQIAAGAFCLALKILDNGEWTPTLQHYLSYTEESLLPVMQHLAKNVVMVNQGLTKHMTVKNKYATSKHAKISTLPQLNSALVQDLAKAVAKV
# measurement protocol: Cyclin-Dependent Kinase Assay cdc2/cyclinB
measured quantity: log10 IC50 (log10 of the value in nM)
A difference of one corresponds to tenfold IC50; all values are log10 with IC50 in nM.

compound=CCC(CC)n1c(=O)ccc2cnc(Nc3cccc(C(F)(F)F)c3)nc21 tested_target="cdc2/cyclinB (Homo sapiens, UniProt P06493)" measured_quantity="log10 IC50" measured_number=2.25
compound=CCCn1c(=O)ccc2cnc(Nc3ccc(C)c(Cl)c3)nc21 tested_target="cdc2/cyclinB (Homo sapiens, UniProt P06493)" measured_quantity="log10 IC50" measured_number=2.15
compound="CCC(C)n1c(=O)ccc2cnc(Nc3ccc(F)c(C(F)(F)F)c3)nc21 (stereo not drawn)" tested_target="cdc2/cyclinB (Homo sapiens, UniProt P06493)" measured_quantity="log10 IC50" measured_number=2.18
compound=CCC(CC)n1c(=O)ccc2cnc(Nc3ccc(C)c(NC(C)=O)c3)nc21 tested_target="cdc2/cyclinB (Homo sapiens, UniProt P06493)" measured_quantity="log10 IC50" measured_number=3.04
compound=CCC(CC)n1c(=O)ccc2cnc(Nc3ccc(C)c(C)c3)nc21 tested_target="cdc2/cyclinB (Homo sapiens, UniProt P06493)" measured_quantity="log10 IC50" measured_number=2.18

Reported log10 IC50, compound `O=c1ccc2cnc(Nc3ccc(F)c(C(F)(F)F)c3)nc2n1CC1CC1` : ____ 2.23

###

# tested target: cdk2/cyclinE (Homo sapiens, UniProt P24941)
# measurement protocol: Cyclin-Dependent Kinase Assay cdk2/cyclinE
# experimental context: cdk2/E IC50
pIC50: −log10 of the molar value.
Classification field: T = pIC50 at or over 7; F = pIC50 under 7.

Take a look at these entries with their results.
molecule="O=c1ccc2cnc(Nc3cccc(C(F)(F)F)c3)nc2n1C1CCCC1 [Example 530]" group_label=F
molecule="CCC(C)n1c(=O)ccc2cnc(Nc3cc(Cl)c(Cl)c(Cl)c3)nc21 (stereo not shown) [Example 461]" group_label=F

Could you please find out whether CCCn1c(=O)ccc2cnc(Nc3ccc(Br)c(C(F)(F)F)c3)nc21 [Example 314] has pIC50 that meets 7 or exceeds it? F

Hello, I need to know if COc1ccc(Nc2ncc3ccc(=O)n(C4CCCCC4)c3n2)cc1OC [Example 613] has measured pIC50 not below 7. Thanks! T

Textbook exercise: given the entry O=c1ccc2cnc(Nc3ccc(Cl)c(Cl)c3)nc2n1C1CCCC1 [Example 532] , state whether its pIC50 is greater than or equal to 7. F

Does CCCn1c(=O)ccc2cnc(Nc3cccc([N+](=O)[O-])c3)nc21 [Example 330] have a reported pIC50 of at least 7? F

Decide: is the reported value of pIC50 for CCCCn1c(=O)ccc2cnc(Nc3ccc4c(c3)CCCC4=O)nc21 [Example 403] equal to or greater than 7? T

Determine whether this molecule has pIC50 no lower than 7: CCn1c(=O)ccc2cnc(Nc3ccc(O)cc3F)nc21 [Example 289] F

I'd appreciate it if you could say whether CCCCn1c(=O)ccc2cnc(Nc3c(F)cc(F)cc3F)nc21 [Example 366] has pIC50 at least equal to 7. F

###

# tested target: cdk2/cyclinE (Homo sapiens, UniProt P24941)
# measurement protocol: Cyclin-Dependent Kinase Assay cdk2/cyclinE
# experimental context: cdk2/E IC50
measured quantity: IC50 (nM)
The answer is to be given in nM; state only the numeric part.

Here is how some compounds turned out for IC50.
compound="CCCCn1c(=O)ccc2cnc(Nc3ccc(NC(=O)OC(C)(C)C)cc3)nc21 [Example 381]" unit_spec=nM measured_number=133
compound="CCn1c(=O)ccc2cnc(Nc3ccc(F)c(C)c3)nc21 [Example 294]" unit_spec=nM measured_number=130

Look up IC50: CCC(CC)n1c(=O)ccc2cnc(Nc3ccc(NC(C)=O)c(C)c3)nc21 [Example 513] 330

State the recorded IC50 for this entry: CCC(CC)n1c(=O)ccc2cnc(Nc3ccc(O)cc3F)nc21 [Example 495] 147

Fill in: IC50 of CCCn1c(=O)ccc2cnc(Nc3ccc(F)cc3)nc21 [Example 332] is ___ 417
